Test system: A498 renal
Test description: NCI tumour cell line growth inhibition, 48 h
TGI values by entry

Compound | TGI
CCOC(=O)C(=Cc1cc(OC)ccc1OC)C(=O)OCC | 28.5 µM
CCO/C=N/C1=C(C#N)C(c2ccc(Cl)cc2)c2c(-c3ccccc3)nn(-c3ccccc3)c2O1 (stereo unspecified) | 19.9 µM
COc1ccc(C2CC(c3ccc4ccccc4c3O)=NN2C(C)=O)cc1OC (stereo unspecified) | > 100 µM
ClC1=NC(Cl)C(Cl)=N/C1=N\c1ncn[nH]1 (stereo unspecified) | 33.4 µM
NCCCC1NC(=O)/C(=C(O)/C=C/C2CCC[C@@H]2CC2SCCS2)C1=O (stereo partly specified) | > 100 µM
CCOC(CI)O[C@@H]1C=C[C@H](OC(C)=O)C1 (stereo partly specified) | > 100 µM
CCN1C(=O)c2ccccc2C1(O)c1ccc(Cl)cc1 (stereo unspecified) | > 100 µM
O=C(O)CCCCCO | > 100 µM
O=C(NCCNCCNCCNC(=O)c1cc(-c2ccccc2)nc2ccccc12)c1cc(-c2ccccc2)nc2ccccc12 | 9.68 µM
COC(=O)n1c(=O)n(-c2ccccc2)c(=O)n1C(=O)Nc1ccccc1 | > 100 µM
O=C(CC(=O)Nc1ccccc1O)Nc1ccccc1O | > 100 µM

* * *

Tested on: KM12 colon
Test description: NCI tumour cell line growth inhibition, 48 h
Where a SMILES comes first, the peptide text is derived from it. [ ]: non-standard residue; d: D form. NMeY = CN[C@@H](Cc1ccc(O)cc1)C(=O)O; dNMeF = CN[C@H](Cc1ccccc1)C(=O)O; Sar = CNCC(=O)O
Each item that follows carries a reported TGI.

Molecule | Result unit | Relation qualifier | TGI
COc1cc2ccnc3c2c(c1OC)-c1ccc(=O)ccc1-3 | µM | > | 100
CCC1(C(=O)OC)CCc2c(OC)ccc(OC)c2C1=O (stereo unspecified) | µM | > | 100
O=c1cc(O)c2ccccc2o1 | µM | > | 100
c1ccc2sc(SCN(C3CCCCC3)C3CCCCC3)nc2c1 | µM | > | 100
O=C1c2cc3c(cc2[C@@H]2[C@H]1c1ccc([N+](=O)[O-])cc1C(=O)N2CCCCl)OCO3 | µM | = | 2.05
CCCCCCCCCCCC[n+]1ccccc1 | µM | = | 2.87
CC1OC(OC2CCCc3c(O)c4c(c(O)c32)C(=O)c2ccccc2C4=O)CC(N)C1O (stereo unspecified) | µM | = | 2.98
C[n+]1ccc(-c2cc[n+](C)cc2)cc1 | µM | > | 92.4
O=C(O)C[O][Sb][O]CC(=O)O | µM | > | 100
O=C(O)c1ccc(NCc2nc3cc4ccccc4cc3[nH]2)cc1 | µM | > | 100
COC(=O)n1c(=O)n(-c2ccccc2)c(=O)n1C(=O)Nc1ccccc1 | µM | > | 100
ICCC(c1ccccc1)(c1ccccc1)c1ccccc1 | µM | = | 15.4
Cc1ccccc1NC(=O)C1C(=O)N(c2ccccc2C)C(=O)/C1=N\N (stereo unspecified) | µM | > | 100
O=C(O)CCCCCO | µM | > | 100
CC(=O)C1C(=O)C(=O)N(c2ccccc2N2C(=O)C(=O)C(C(C)=O)C2=O)C1=O (stereo unspecified) | µM | > | 100
NC(CSc1nc2ccccn2c1[N+](=O)[O-])C(=O)O (stereo unspecified) | µM | > | 100
CC1(O)CC23CC1CCC2(C)C12CCCC(C)(C(=O)O1)C2CC3O (stereo unspecified) | µM | > | 100
CC1(C)CC(OCCCC[P+](c2ccccc2)(c2ccccc2)c2ccccc2)CC(C)(C)N1O | µM | = | 0.966
COC(=O)[C@@H]1C2OC(C)(C)OC2CN1C(=O)OCc1ccccc1 (stereo partly specified) | µM | > | 100
CC(=O)OCC1OC(n2c(=O)n(-c3ccccc3)c(=O)c3cc(Br)cc(Br)c32)C(OC(C)=O)C(OC(C)=O)C1OC(C)=O (stereo unspecified) | µM | > | 100
OCCNc1ncnc2c1ncn2C1OC(CO)C(O)C1O (stereo unspecified) | µM | > | 100
COc1ccc2nc(NC(=O)C(=O)C(C(=O)c3ccccc3-c3ccccc3)C3OC(=O)c4ccccc43)sc2c1 (stereo unspecified) | µM | = | 54.9
N#Cc1cccc(/C=C(/C(=O)c2ccccc2)c2ccccc2)c1 | µM | = | 11.6
CC(=O)Nc1ccccc1-c1cnc2ccccc2n1 | µM | > | 100
CC[C@H](C)[C@@H]1NC(=O)[C@H](Cc2ccc(O)cc2)N(C)C(=O)[C@H](Cc2ccccc2)NC(=O)CN(C)C(=O)[C@@H]2CCCN2C(=O)[C@@H](Cc2ccccc2)N(C)C(=O)[C@H](CC(C)C)NC1=O (cyclo(F[NMeY]IL[dNMeF]P[Sar])) | µM | = | 5.48
C/C1=C\C/C=C(\C)[C@H]2CC(CC/C(C)=C/CC1)[C@@](C)(CO)O2 | µM | > | 100
COc1cc(C)c2c(=O)c3c(oc2c1)C(=O)c1c(O)c(OC)cc(O)c1C3=O | µM | = | 11.9
Nc1ccc2cc3[nH]c4cc(N)ccc4c3nc2c1 | µM | = | 1.7
COc1cccc(-n2ncc3c(N/N=C/c4ccc(S(C)(=O)=O)cc4)ncnc32)c1 | µM | > | 25
Cn1c(=O)c2c(nc(N)n2C2OC(CO)C(O)C2O)n(C)c1=O (stereo unspecified) | µM | > | 100
CN(C)C(=O)c1cc2cnc(Nc3ccc(-c4csc5c(=O)cc(N6CCNCC6)oc45)cc3)nc2n1C1CCCC1 | µM | = | 1.58
COc1ccc2c(c1)CC[C@@H]1[C@@H]2CC[C@]2(C)C(=O)/C(=C/c3ccncc3)C[C@@H]12 | µM | = | 73.9
O=C(/C=C/c1ccccc1O)c1cccnc1 | µM | > | 100
COc1ccc(C2CC(=O)CC(c3ccc(OC)cc3)C23C(=O)NC(=S)NC3=O)cc1 (stereo unspecified) | µM | > | 100
CCN(CC)CCOC(=O)CCN1CC2CCC(CC2)C1 | µM | > | 100
CC(C)=C[C@@H]1C[C@H](C)c2c(O)cc(C)c3c2C1=C(C)C(=O)C3=O | µM | = | 31.3
CC1(C)N=C(N)N=C(N)N1c1cccc(CCCCc2ccccc2)c1 | µM | = | 1.86
CCCc1c(C(=O)OCC)[nH]c(-c2ccc(-c3[nH]c(C(=O)OCC)c(CCC)c3C(=O)OCC)o2)c1C(=O)OCC | µM | > | 100
C[C@]12CCC3c4ccc(O)cc4CCC3C1Cc1ccc(O)cc12 (stereo partly specified) | µM | = | 20.6
S=C(N/N=C(/c1ccccc1)c1ccccn1)Nc1ccc(Cl)cc1 | µM | = | 13.7
CC(=O)OC1CCC2(C)C(CCC3C4CC=C(C(C)=O)C4(C)OC(=O)CC32)C1 (stereo unspecified) | µM | = | 22.7

* * *

System: COLO 205 colon
Test description: NCI tumour cell line growth inhibition, 48 h
Entries and their measured TGI follow.

Compound | TGI
NC1CC(=O)c2csc(Cl)c21 (stereo unspecified) | 12.1 µM
CC1=C(C(=O)CC(=O)C(=O)Nc2ccccc2)Sc2ccccc2N1 | > 100 µM
Cc1cc(N(CCCCl)CCCCl)ccc1C=Nc1cccc(Cl)c1 | 23.6 µM
CCOC(=O)C(Cc1ccccc1)NC(=O)OC(C)(C)C (stereo unspecified) | > 100 µM
NC(=S)NNC(=O)CCC(=O)Nc1ccc(Cl)cc1Cl | > 100 µM
O=C1c2ccccc2-c2n[nH]c3cccc1c23 | > 100 µM

* * *

Recorded TGI, one value per entry.
Test system: SK-OV-3 ovarian
Test description: NCI tumour cell line growth inhibition, 48 h
Measure name: TGI (µM)

Molecule | Result unit | Relation qualifier | Value reported
Cc1nc(-c2cc3c(ccc4ccccc43)oc2=O)cc2c1c(=O)oc1ccc3ccccc3c12 | µM | > | 100
ClC1=NC(Cl)C(Cl)=N/C1=N\c1ncn[nH]1 (stereo not given) | µM | = | 29
COc1ccc2oc(=O)c(CC=C(C)C)c(O)c2c1C | µM | > | 100
O=C(NCCNCCNCCNC(=O)c1cc(-c2ccccc2)nc2ccccc12)c1cc(-c2ccccc2)nc2ccccc12 | µM | = | 11.1
CCc1ccc(Nc2cc(=O)[nH]c(=S)n2C)cc1 | µM | > | 100
CCN(C(=O)CCl)C(C)(C)C(SSSC(c1ccc(Cl)cc1)C(C)(C)N(CC)C(=O)CCl)c1ccc(Cl)cc1 (stereo not given) | µM | = | 31.5
COc1cc2c(cc1OC)C1CCc3ccccc3CN1CC2 (stereo not given) | µM | > | 100
O=C(O)c1ccc(NCc2nc3cc4ccccc4cc3[nH]2)cc1 | µM | > | 100
COc1ccc([C@H]2C=C(c3cc(F)c(Cl)cc3Cl)NC(=S)N2)cc1 | µM | > | 100
COc1c(NC(=O)CC(C)=O)[c]([Hg][O]C(C)=O)c(OC)c(Cl)[c]1[Hg][O]C(C)=O | µM | = | 31.1
